The origin of these recorded values is patent US7541463B2.

System: human lung adenocarcinoma cell A-549
Experiment notes: Growth inhibition of A-549 cells, SRB protein staining assay
Type: cell-based
Condition summary: A549, 10^−6 M, read-out: Growth inhibition effect to A-549 cell strain
For each entry below, report its inhibition at 1 µM value.
Note to self: number, then unit, no commentary.

Recorded inhibition at 1 µM, per entry:
Cc1ccc(-c2nc3cc4c5c(cccc5c3s2)C(=O)N(CCN(C)C)C4=O)cc1 [compound 6]; 52.7%
O=c1c2ccc3sc4ccccc4c4ccc(c(=O)n1CCN1CCNCC1)c2c34 [compound 3]; 69.8%
CN(C)CCN1C(=O)c2cccc3c2c(cc2nc(-c4cccc([N+](=O)[O-])c4)sc23)C1=O [compound 7]; 72.3%
CN(C)CCCN1C(=O)c2cccc3c2c(cc2nnsc23)C1=O [compound 13]; 90.6%
CCCCN1C(=O)c2cccc3c2c(cc2c4ccccc4sc32)C1=O [compound 15]; 0%
CN(C)CCN1C(=O)c2cccc3c2c(cc2nnsc23)C1=O [compound 11]; 94.5%

State the recorded inhibition at 1 µM for every item in the following list.
1. CN(C)CCn1c(=O)c2ccc3sc4ccccc4c4ccc(c1=O)c2c34 [compound 2]
2. CN(C)CCCn1c(=O)c2ccc3sc4ccccc4c4ccc(c1=O)c2c34 [compound 4]
3. COc1ccc(-c2nc3cc4c5c(cccc5c3s2)C(=O)N(CCN(C)C)C4=O)cc1 [compound 9]

Result:
["75.1%", "73.5%", "94.5%"]

State the recorded inhibition at 1 µM for every item in the following list.
1. CN(C)CCN1C(=O)c2cccc3c2c(cc2nc(-c4ccccc4O)sc23)C1=O [compound 8]
2. CN(C)CCN1C(=O)c2cccc3c2c(cc2nc(-c4ccccc4)sc23)C1=O [compound 5]

Result:
18.6%
73%

---

Test system: mice leukemia cell P388
Experiment notes: Growth inhibition of P388 cells, MTT assay
Assay type: cell-based
Condition summary: Mus musculus, 10^−6 M, read-out: Growth inhibition effect to P388 cell strain
For each entry below, report its inhibition at 1 µM value.
Numbers only, in %.

Recorded inhibition at 1 µM, per entry:
COc1ccc(-c2nc3cc4c5c(cccc5c3s2)C(=O)N(CCN(C)C)C4=O)cc1; 78.2
CN(C)CCN1C(=O)c2cccc3c2c(cc2nnsc23)C1=O; 42.2

Now examine the next entry.
Query: Send back mice leukemia cell P388 inhibition at 1 µM of `CN(C)CCN1C(=O)c2cccc3c2c(cc2nc(-c4ccccc4O)sc23)C1=O` only.
Result: 24.9
